assay-target: T1, HD-PTP(1–361;T145K) (human, UniProt Q9H3S7 1-361, T145K)
T1 sequence: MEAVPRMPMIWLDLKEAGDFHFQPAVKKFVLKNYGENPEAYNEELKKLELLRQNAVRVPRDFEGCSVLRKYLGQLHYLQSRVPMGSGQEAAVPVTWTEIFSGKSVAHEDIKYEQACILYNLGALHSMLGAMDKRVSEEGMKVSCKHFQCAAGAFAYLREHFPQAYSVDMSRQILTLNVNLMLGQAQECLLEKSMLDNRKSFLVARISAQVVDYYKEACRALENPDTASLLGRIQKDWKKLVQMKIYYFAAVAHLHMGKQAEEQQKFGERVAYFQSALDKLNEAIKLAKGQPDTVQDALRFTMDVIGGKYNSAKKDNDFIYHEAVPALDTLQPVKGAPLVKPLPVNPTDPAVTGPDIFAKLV
procedure-details: ITC
readout-type: pKd
Bear in mind: pKd is minus log10 of a mol/L concentration; give just that figure.

Record KEEEDDDMKELENWAGSM [CHMP4B(207–224)] . Reported pKd: 5.40

Hello, the source for this data is paper PMC4751086, in case you need it.
